- measured-target: Ubiquitin carboxyl-terminal hydrolase 30 (Homo sapiens) (UniProt Q70CQ3)
- Sequence (Q70CQ3 whole entry, looked up): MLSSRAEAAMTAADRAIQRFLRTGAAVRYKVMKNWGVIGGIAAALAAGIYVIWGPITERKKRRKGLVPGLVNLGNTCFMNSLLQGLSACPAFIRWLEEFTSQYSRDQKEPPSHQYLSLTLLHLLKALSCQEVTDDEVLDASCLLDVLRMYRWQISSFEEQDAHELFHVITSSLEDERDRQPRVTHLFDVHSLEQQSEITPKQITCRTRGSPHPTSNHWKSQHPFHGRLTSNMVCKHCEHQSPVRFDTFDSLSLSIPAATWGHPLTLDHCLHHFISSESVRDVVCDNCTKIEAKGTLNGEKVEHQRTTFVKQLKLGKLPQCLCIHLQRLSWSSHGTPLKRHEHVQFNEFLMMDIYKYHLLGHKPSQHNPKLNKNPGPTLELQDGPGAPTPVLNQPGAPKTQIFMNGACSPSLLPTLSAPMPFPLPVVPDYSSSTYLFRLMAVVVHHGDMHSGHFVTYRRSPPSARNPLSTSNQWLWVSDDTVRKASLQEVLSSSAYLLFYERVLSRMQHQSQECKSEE
- experiment-notes: inhibitors of ubiquitin-specific protease 30 deubiquitylating enzyme, concentration dependence, in vitro biochemical, validation of primary hits (AID 1645865)
- assay-context: purified USP30, Ub-rhodamine cleavage, fluorescence, 2 h
Activity calls are given as the source filed them.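 The calls were made as follows: active = maximal inhibition of the USP30 enzyme reaching 30% or more across the dose series; inactive = the rest.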
Select the correct class. Options are active, inactive and nothing else.

How was `Cc1nc(-c2ccc(NC(=O)N3CCN(c4ccccn4)CC3)cc2)no1` classified in this test? inactive

How was COc1cc2cc3c(c(O)c2c(O)c1-c1c(OC)cc2cc4c(c(O)c2c1O)C(=O)OC1CC(C)OC41)C(=O)OC1CC(C)OC31 (stereo unspecified) classified in this test? inactive

How was `COc1ccc2nc(SCC(=O)Nc3ccc(NC(C)=O)cc3)c(C)cc2c1` classified in this test? active

How was `COc1ccc(-n2c(=O)c(CCC(=O)O)nc3ccccc32)cc1` classified in this test? inactive

How was `O=C(Cn1c(=O)n(CC(=O)NC2CCCC2)c(=O)c2ccccc21)Nc1cc(Cl)ccc1Cl` classified in this test? active

How was `Cc1cc(NC(=O)Cn2c(=O)n(CCCCC(=O)NCc3ccco3)c(=O)c3ccccc32)ccc1Br` classified in this test? active

How was `CC1CCN(S(=O)(=O)c2ccc(C(=O)Nc3ccc(S(N)(=O)=O)cc3)cc2)CC1` classified in this test? active

How was `COc1ccc(N(CC(=O)NC2CCCCC2)C(=O)c2ccc(-c3ccccc3)[nH]2)cc1OC` classified in this test? active

How was `COc1cc(OC)cc(-n2c(=O)c3sccc3n(CC(=O)c3ccc(F)cc3)c2=O)c1` classified in this test? active

How was `COc1ccc(NCc2nc3ccccc3n2Cc2ccccc2)cc1` classified in this test? inactive

How was `Cc1ccc(-c2nc(-c3ccccc3)c(S(=O)(=O)CC(=O)Nc3ccc(C)c(C)c3)[nH]2)cc1` classified in this test? inactive

How was `CCn1ccc2c(cc(C(=O)Nc3cccc(OC)c3)n2C)c1=O` classified in this test? inactive

How was `CCCCN(C)C(=O)c1cc2c(=O)n3cccc(C)c3nc2n1Cc1ccccc1` classified in this test? active

How was COc1ccc(NC(=O)C2c3ccccc3C(=O)N(C3CCCC3)C2c2cccs2)cc1OC (stereo unspecified) classified in this test? active

How was `COc1ccc(NC(=O)CC(=O)c2ccc([N+](=O)[O-])cc2)cc1S(=O)(=O)Nc1ccc(Cl)cc1` classified in this test? active

How was `CCOc1ccc(NC(=O)c2nc3c(=O)[nH]c4cc(C)ccc4n3n2)cc1` classified in this test? inactive

How was `O=C(/C=C/c1ccc(F)cc1)N1CCC(Cc2ccccc2)CC1` classified in this test? active

How was `COCCn1c(=S)[nH]c2cc(C(=O)NCCSCc3ccccc3)ccc2c1=O` classified in this test? inactive

How was `COc1cc(Cl)ccc1Oc1ncnc2sc(C)c(C)c12` classified in this test? inactive

How was `Cc1cc(C(=O)N2CC(C(=O)Nc3cc(C(F)(F)F)ccc3Cl)C2)no1` classified in this test? active

How was `CNc1nc2c(c(=O)n1C)CN(C(=O)Nc1cccc3ccccc13)CC2` classified in this test? inactive

How was CCCCCC(=O)N1c2ccccc2NC2=C(C(=O)CC(c3ccc(C(C)(C)C)cc3)C2)C1c1ccncc1 (stereo unspecified) classified in this test? active

How was `Cc1ccc(Nc2nc(Nc3cccc(F)c3)nc3nccnc23)c(C)c1` classified in this test? inactive

How was `Cc1ccc(NC(=O)Cn2c(Nc3cccc(C)c3)nc(C)cc2=O)cc1` classified in this test? active

How was O=S(c1ccc2ccccc2c1)c1cnns1 (stereo unspecified) classified in this test? inactive

How was `O=C(/C=C/c1ccco1)c1cccc([N+](=O)[O-])c1` classified in this test? active

How was `Cc1ccc(-c2nc(NC(=O)COc3ccc(Cl)cc3)no2)cc1` classified in this test? active

How was O=C(c1cscn1)N1CCC2(CC1)CC1(CO2)Nc2ccccc2-n2cccc21 (stereo unspecified) classified in this test? inactive

How was `c1ccc2c(Cc3nc(-c4ccncc4)no3)cccc2c1` classified in this test? inactive

How was `Cc1cc(Cl)ccc1NC(=O)c1cc(-c2cccnc2)n[nH]1` classified in this test? inactive

How was `Cc1nc(-c2ccc3c(c2)nnn3CCN2CCOCC2)no1` classified in this test? inactive

How was `COc1ccc(OC)c(-c2cn3ccn(-c4ccc5c(c4)CCC5)c(=O)c3n2)c1` classified in this test? inactive

How was `COCCNC(=O)c1ccn(-c2ccc3ccc(-c4cnn(C)c4)cn23)n1` classified in this test? inactive

How was `NC(=O)c1nc(-c2cccc(F)c2)nc2c1[nH]c(=O)n2C1CCCCC1` classified in this test? active

How was Cc1ccc2c(C)nc(Nc3ncc4c(n3)CC(c3ccco3)CC4=O)nc2c1 (stereo unspecified) classified in this test? active

How was `CC(=O)O[C@H]1[C@]2(O)C[C@]34SS[C@](CO)(C(=O)N3[C@@H]2C[C@@]12O[C@@H](C)C(C)(C)C2=O)N(C)C4=O` classified in this test? active

How was O=C1Nc2c(Cl)cc(Cl)cc2C1(O)c1sc(NC2CCCCC2)nc1-c1ccccc1 (stereo unspecified) classified in this test? active

How was `CCOC(=O)c1ccc(-n2c(=O)c(C#N)cc3c(=O)n4ccccc4nc32)cc1` classified in this test? inactive

How was `CCCc1cc(=O)oc2cc(OCC(=O)NCc3ccc(OC)cc3)ccc12` classified in this test? active

How was `Cc1ccc(Cn2c(=O)n(CCC(=O)NCCc3ccccc3)c(=O)c3ccccc32)cc1` classified in this test? active

How was `CCc1c(C)c(C#N)c2nc3ccccc3n2c1N1CCN(C2CCCC2)CC1` classified in this test? active
